SYSTEM: human Nav1.7 (Homo sapiens, UniProt Q15858)
Construct: expressed in transfected cells; host or cells: HEK293
Sequence (Q15858 whole entry): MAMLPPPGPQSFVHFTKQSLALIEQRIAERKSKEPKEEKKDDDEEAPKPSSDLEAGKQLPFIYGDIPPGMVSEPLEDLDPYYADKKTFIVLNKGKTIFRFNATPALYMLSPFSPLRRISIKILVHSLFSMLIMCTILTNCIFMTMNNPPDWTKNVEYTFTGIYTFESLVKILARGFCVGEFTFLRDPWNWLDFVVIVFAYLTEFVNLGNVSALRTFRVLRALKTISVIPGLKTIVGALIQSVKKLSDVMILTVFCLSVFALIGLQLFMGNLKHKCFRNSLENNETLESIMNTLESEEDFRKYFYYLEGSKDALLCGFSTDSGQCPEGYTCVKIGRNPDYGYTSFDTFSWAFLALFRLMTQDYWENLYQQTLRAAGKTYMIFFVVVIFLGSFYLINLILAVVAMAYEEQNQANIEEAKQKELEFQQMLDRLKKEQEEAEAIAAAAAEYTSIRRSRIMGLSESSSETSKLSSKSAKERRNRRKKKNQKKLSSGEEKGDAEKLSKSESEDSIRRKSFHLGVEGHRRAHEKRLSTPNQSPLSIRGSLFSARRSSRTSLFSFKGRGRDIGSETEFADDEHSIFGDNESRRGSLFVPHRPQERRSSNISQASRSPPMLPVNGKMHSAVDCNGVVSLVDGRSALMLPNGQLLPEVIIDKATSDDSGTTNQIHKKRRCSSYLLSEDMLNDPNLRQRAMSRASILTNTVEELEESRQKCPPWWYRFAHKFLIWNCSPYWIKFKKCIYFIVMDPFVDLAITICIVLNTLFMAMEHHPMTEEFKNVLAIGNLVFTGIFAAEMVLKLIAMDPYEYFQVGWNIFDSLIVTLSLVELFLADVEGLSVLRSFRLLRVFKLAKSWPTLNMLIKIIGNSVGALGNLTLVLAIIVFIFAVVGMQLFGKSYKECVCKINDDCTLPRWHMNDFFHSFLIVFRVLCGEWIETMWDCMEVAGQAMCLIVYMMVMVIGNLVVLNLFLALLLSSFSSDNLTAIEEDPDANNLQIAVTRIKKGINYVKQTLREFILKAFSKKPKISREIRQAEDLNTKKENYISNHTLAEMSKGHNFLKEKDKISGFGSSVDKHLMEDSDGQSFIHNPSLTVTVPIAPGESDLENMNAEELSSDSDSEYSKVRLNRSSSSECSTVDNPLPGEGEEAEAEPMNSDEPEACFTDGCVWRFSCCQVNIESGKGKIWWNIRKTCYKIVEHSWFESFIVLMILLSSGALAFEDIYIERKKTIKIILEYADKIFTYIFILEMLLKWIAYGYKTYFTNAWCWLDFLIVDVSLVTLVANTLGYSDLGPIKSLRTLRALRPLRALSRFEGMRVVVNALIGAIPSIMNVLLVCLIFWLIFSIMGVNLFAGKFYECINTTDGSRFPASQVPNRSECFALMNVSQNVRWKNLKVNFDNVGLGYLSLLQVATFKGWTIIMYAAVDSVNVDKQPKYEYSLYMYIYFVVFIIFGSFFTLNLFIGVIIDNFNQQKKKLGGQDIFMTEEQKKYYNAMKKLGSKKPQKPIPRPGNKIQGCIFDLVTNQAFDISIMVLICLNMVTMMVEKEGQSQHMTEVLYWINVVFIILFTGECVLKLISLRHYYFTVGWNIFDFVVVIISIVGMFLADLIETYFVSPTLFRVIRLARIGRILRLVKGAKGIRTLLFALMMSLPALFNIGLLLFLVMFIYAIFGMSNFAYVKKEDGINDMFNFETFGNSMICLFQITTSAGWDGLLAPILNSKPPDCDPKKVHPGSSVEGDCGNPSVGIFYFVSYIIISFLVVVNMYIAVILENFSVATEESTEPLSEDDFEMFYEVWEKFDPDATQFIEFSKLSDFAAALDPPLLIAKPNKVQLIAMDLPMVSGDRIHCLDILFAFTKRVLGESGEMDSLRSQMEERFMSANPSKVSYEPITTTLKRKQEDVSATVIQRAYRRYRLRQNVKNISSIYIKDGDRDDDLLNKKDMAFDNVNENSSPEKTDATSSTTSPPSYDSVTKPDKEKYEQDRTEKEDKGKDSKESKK
PROTOCOL_DETAILS: Nav 1.7 In Vitro PatchXpress (PX) Assay
Type: cell-based
COND: HEK 293 cells stably transfected with human Nav1.7; PatchXpress whole cell voltage clamp; partially inactivated state (holding potential yielding 20 to 50% inactivation); read-out: hNav1.7 PX IC50
Experimental: Nav 1.7 In Vitro PatchXpress (PX) Assay HEK 293 cells stably transfected with human Nav1.7 were recorded in whole cell voltage clamp mode with the PatchXpress automated electrophysiology system (Molecular Devices, LLC, Sunnyvale, Calif.). Compound effects were measured on a partially inactivated state of the sodium channel. […] Peak sodium current was measured at the end of the compound addition period to determine percent inhibition. […]
EXPERIMENTAL_ENDPOINT: log10 IC50 (log10 of the value in nM)
Quick note: numbers are log10 of IC50, with nM as the unit.

Worked set:
COMPOUND: COc1cc(-c2cc(F)cc(Cl)c2)c(Cl)cc1-n1c2c(ccc1=O)CN(S(=O)(=O)Nc1ccon1)CC2 [Example 53]
SYSTEM: human Nav1.7 (Homo sapiens, UniProt Q15858)
log10 IC50: 0.72
--
COMPOUND: COc1cc(-c2cc(F)cc(Cl)c2)c(F)cc1-n1c2c(ccc1=O)CN(S(=O)(=O)Nc1ncns1)CC2 (single isomer, unassigned) [Example 5-P]
SYSTEM: human Nav1.7 (Homo sapiens, UniProt Q15858)
log10 IC50: 1.09
--
COMPOUND: COc1cc(-c2cnc(OC)c(Cl)c2)c(F)cc1-n1c2c(ccc1=O)CN(S(=O)(=O)Nc1cccnn1)CC2 [Example 50]
SYSTEM: human Nav1.7 (Homo sapiens, UniProt Q15858)
log10 IC50: 2.24
--
COMPOUND: COc1cc(-c2ccc(F)c(F)c2)c(Cl)cc1-n1c2c(ccc1=O)CN(S(=O)(=O)Nc1ccon1)CC2 [Example 51]
SYSTEM: human Nav1.7 (Homo sapiens, UniProt Q15858)
log10 IC50: 1.65
--
COMPOUND: COc1cc(-c2cc(F)cc(Cl)c2)c(F)cc1-n1c2c(ccc1=O)CN(S(=O)(=O)Nc1ccon1)CC2 (racemic) [Example 18-(Rac)]
SYSTEM: human Nav1.7 (Homo sapiens, UniProt Q15858)
log10 IC50: 1.60

Here is another compound to look at.
For the compound COc1cc(-c2ccc(C)c(Cl)c2)c(F)cc1-n1c2c(ccc1=O)CN(S(=O)(=O)Nc1cccnn1)CC2 [Example 44] , give its reported log10 IC50.
1.86

* * *

SYSTEM: human Nav1.7 (Homo sapiens)
Construct: expressed in transfected cells; host or cells: HEK293
PROTOCOL_DETAILS: Nav 1.7 In Vitro PatchXpress (PX) Assay
Format: cell-based
COND: HEK 293 cells stably transfected with human Nav1.7; PatchXpress whole cell voltage clamp; partially inactivated state (holding potential yielding 20 to 50% inactivation); read-out: hNav1.7 PX IC50
EXPERIMENTAL_ENDPOINT: pIC50
pIC50 here is simply -log10 of the concentration when that concentration is written in mol/L.

Worked set:
COMPOUND: COc1cc(-c2cc(F)cc(Cl)c2)c(F)cc1-n1c2c(ccc1=O)CN(S(=O)(=O)Nc1ccc(F)cn1)CC2 (single isomer, unassigned) [Example 12-M]
pIC50: 5.03
//
COMPOUND: COc1cc(-c2cc(F)cc(Cl)c2)c(F)cc1-n1c2c(ccc1=O)CN(S(=O)(=O)Nc1cc(C)ncn1)CC2 (single isomer, unassigned) [Example 4-P]
pIC50: 7.11
//
COMPOUND: COc1cc(-c2ccc(F)c(F)c2)c(F)cc1-n1c2c(ccc1=O)CN(S(=O)(=O)Nc1ccon1)CC2 (racemic) [Example 20-(Rac)]
pIC50: 6.80

For the compound `COc1cc(-c2ccc(F)c(C(F)(F)F)c2)c(F)cc1-n1c2c(ccc1=O)CN(S(=O)(=O)Nc1cccnn1)CC2` , give its reported pIC50.
7.53

For the compound COc1cc(-c2cc(Cl)ccc2C)c(F)cc1-n1c2c(ccc1=O)CN(S(=O)(=O)Nc1ccon1)CC2 (single isomer, unassigned) [Example 9-P] , give its reported pIC50.
7.74

For the compound COc1cc(-c2cc(F)cc(Cl)c2)c(F)cc1-n1c2c(ccc1=O)CN(S(=O)(=O)Nc1cccc(F)n1)CC2 (single isomer, unassigned) [Example 13-P] , give its reported pIC50.
7.55

* * *

# IC50 values compiled below
SYSTEM: human Nav1.7 (Homo sapiens)
Construct: expressed in transfected cells; host or cells: HEK293
PROTOCOL_DETAILS: Nav 1.7 In Vitro PatchXpress (PX) Assay
Format: cell-based
COND: HEK 293 cells stably transfected with human Nav1.7; PatchXpress whole cell voltage clamp; partially inactivated state (holding potential yielding 20 to 50% inactivation); read-out: hNav1.7 PX IC50
Please report the result as a number followed by the unit.

Worked set:
MOLECULE: COc1cc(-c2cc(F)cc(Cl)c2)c(F)cc1-n1c2c(ccc1=O)CN(S(=O)(=O)Nc1ccccn1)CC2 (single isomer, unassigned) [Example 11-M]
IC50: 4500 nM
//
MOLECULE: COc1cc(-c2ccc(Cl)c(C)c2)c(F)cc1-n1c2c(ccc1=O)CN(S(=O)(=O)Nc1nccs1)CC2 (racemic)
IC50: 35.1 nM

Here is another molecule to look at.
For the molecule COc1cc(-c2cc(F)cc(Cl)c2)c(F)cc1-n1c2c(ccc1=O)CN(S(=O)(=O)Nc1ncccn1)CC2 (racemic) [Example 31] , give its reported IC50.
137 nM

* * *

SYSTEM: human Nav1.7 (Homo sapiens)
Construct: expressed in transfected cells; host or cells: HEK293
PROTOCOL_DETAILS: Nav 1.7 IWQ In Vitro Assay (IonWorks Quattro)
Assay type: cell-based
COND: HEK293 cells stably transfected with human Nav 1.7; IonWorks Quattro population patch-clamp; 26th pulse to −20 mV, 5 Hz; cells unclamped 5 to 8 minutes with compound; read-out: hNav1.7 IWQ IC50
Description: Nav 1.7 or Nav 1.5 IWQ In Vitro Assay HEK293 cells stably transfected with either human Nav 1.7 or human Nav 1.5 were recorded in population patch-clamp mode with the IonWorks® Quattro automated electrophysiology system (Molecular Devices, LLC, Sunnyvale, Calif.). […]
So basically, if IC50 comes in under 4 nM it's Yes, and if it's 4 nM or more it's No.

The following molecules have reported results that may help.
MOLECULE: COc1cc(-c2cnc(OC)c(C(F)(F)F)c2)c(F)cc1-n1c2c(ccc1=O)CN(S(=O)(=O)Nc1cccnn1)CC2
CLASS: No
--
MOLECULE: COc1cc(-c2cc(F)cc(Cl)c2)c(F)cc1-n1c2c(ccc1=O)CN(S(=O)(=O)Nc1ncccn1)CC2 (racemic)
CLASS: No
--
MOLECULE: COc1cc(-c2cc(OC)c(-n3c4c(ccc3=O)CN(S(=O)(=O)Nc3ccon3)CC4)cc2F)ccc1Cl (racemic) [Example 15-(Rac)]
CLASS: No
--
MOLECULE: COc1cc(-c2ccc(F)c(C)c2)c(F)cc1-n1c2c(ccc1=O)CN(S(=O)(=O)Nc1ccon1)CC2 (single isomer, unassigned)
CLASS: Yes

Below: the item to evaluate.
Confirm or reject: IC50 of COc1cc(-c2cc(F)cc(Cl)c2)c(F)cc1-n1c2c(ccc1=O)CN(S(=O)(=O)Nc1ccon1)CC2 (single isomer, unassigned) [Example 18-P] lies strictly below 4 nM
Yes

* * *

SYSTEM: human Nav1.7 (Homo sapiens)
Construct: expressed in transfected cells; host or cells: HEK293
PROTOCOL_DETAILS: Nav 1.7 IWB In Vitro Assay (IonWorks Barracuda)
Type: cell-based
COND: HEK293 cells stably transfected with human Nav 1.7; IonWorks Barracuda population patch-clamp; cells clamped to −20 mV for 4 minutes with compound; 26th pulse; read-out: hNav1.7 IWB IC50
Protocol: Nav 1.7 IWB In Vitro Assay HEK293 cells stably transfected with human Nav 1.7 were recorded in population patch-clamp mode with the IonWorks© Barracuda (IWB) automated electrophysiology system (Molecular Devices, LLC, Sunnyvale, Calif.). From a holding potential of −110 mV, sodium currents were elicited by a train of 26 depolarizations of 150 ms duration to −20 mV at a frequency of 5 Hz. […]
# IC50 values compiled below
All answers are understood in µM, so give the number only.

COMPOUND: COc1cc(Cl)cc(-c2cc(OC)c(-n3c4c(ccc3=O)CN(S(=O)(=O)Nc3cccnn3)CC4)cc2F)c1 [Example 70]
SYSTEM: human Nav1.7 (Homo sapiens)
IC50, µM: 0.0062

Here is another compound to look at.
For the compound COc1cc(-c2cc(F)cc(C(F)F)c2)c(F)cc1-n1c2c(ccc1=O)CN(S(=O)(=O)Nc1cccnn1)CC2 [Example 84] , give its reported IC50.
0.0171
